assayed_system: Prostate-specific antigen (Homo sapiens)
Sequence (P07288 whole entry): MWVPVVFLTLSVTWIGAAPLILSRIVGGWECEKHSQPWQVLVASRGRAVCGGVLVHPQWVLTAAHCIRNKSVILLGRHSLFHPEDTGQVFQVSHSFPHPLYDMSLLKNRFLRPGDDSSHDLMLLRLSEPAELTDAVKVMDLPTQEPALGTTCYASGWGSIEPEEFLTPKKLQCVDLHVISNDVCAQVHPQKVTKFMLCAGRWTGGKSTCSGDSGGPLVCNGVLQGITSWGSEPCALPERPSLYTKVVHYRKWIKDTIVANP
test_description: Prodrug activation assessed as PSA (unknown origin)-mediated digestion assessed as half life at 1/100 enzyme-compound molar ratio by HPLC analysis
Numbered stars: 1 amine (or outer) side, 2 acyl side, 3 side chain; on linkers, the order of the positions; unused ones are H or OH. Square brackets hold non-standard residues; d marks the D form. Peptide text beside a SMILES is read from it. * marks the point of attachment. Doxorubicin(3'-N) = COc1cccc2c1C(=O)c1c(O)c3c(c(O)c1C2=O)C[C@@](O)(C(=O)CO)C[C@@H]3O[C@H]1C[C@H](N*)[C@H](O)[C@H](C)O1; X1 = O=P1(N(CCCl)CCCl)N[C@@H](N*)CCO1; Glutaryl = O=C(CCCC(=O)[*:2])[*:1]; Hyp = O=C(O)[C@@H]1C[C@@H](O)CN1; Chg = N[C@H](C(=O)O)C1CCCCC1; Suc = O=C(CCC(=O)[*:2])[*:1]
reported_metric: t1/2 (h)
A number alone suffices; assume h.

Here is how some molecules turned out for t1/2.
>  <molecule>
CC(C)C[C@H](NC(=O)[C@H](CCCCN)NC(=O)[C@H](CO)NC(=O)CCC(=O)O)C(=O)N[C@@H](CCC(N)=O)C(=O)N[C@H]1CCOP(=O)(N(CCCl)CCCl)N1 (some centres undefined) (Suc-SKLQ-X1)

>  <t1/2 [h]>
12

$$$$
>  <molecule>
COc1cccc2c1C(=O)c1c(O)c3c(c(O)c1C2=O)C[C@@](O)(C(=O)CO)C[C@@H]3O[C@H]1C[C@H](NC(=O)[C@H](CC(C)C)NC(=O)[C@H](CO)NC(=O)[C@H](CCC(N)=O)NC(=O)[C@@H](NC(=O)[C@H](CO)NC(=O)[C@H](C)NC(=O)[C@@H]2C[C@@H](O)CN2C(=O)CCCC(=O)O)C2CCCCC2)[C@H](O)[C@H](C)O1 [L-377202] (Glutaryl-[Hyp]AS[Chg]QSL-{Doxorubicin(3'-N)})

>  <t1/2 [h]>
0.5

$$$$
>  <molecule>
C[C@H](NC(=O)[C@@H]1C[C@@H](O)CN1C(=O)CCCC(=O)O)C(=O)N[C@@H](CO)C(=O)N[C@H](C(=O)N[C@@H](CCC(N)=O)C(=O)N[C@H]1CCOP(=O)(N(CCCl)CCCl)N1)C1CCCCC1 (some centres undefined) (Glutaryl-[Hyp]AS[Chg]Q-X1)

>  <t1/2 [h]>
0.917

$$$$

Let us move to another entry and its t1/2.
### Prompt Report t1/2 for CC(C)C[C@H](NC(=O)[C@H](CCCCN)NC(=O)[C@H](CO)NC(=O)[C@H](CO)NC(=O)[C@H](Cc1cnc[nH]1)NC(=O)CCC(=O)O)C(=O)N[C@@H](CCC(N)=O)C(=O)N[C@H]1CCOP(=O)(N(CCCl)CCCl)N1 (some centres undefined) (Suc-HSSKLQ-X1) please.
### Response 6.5
